- system-under-test: Aminopeptidase N (Homo sapiens, UniProt P15144)
- Sequence (P15144 whole entry): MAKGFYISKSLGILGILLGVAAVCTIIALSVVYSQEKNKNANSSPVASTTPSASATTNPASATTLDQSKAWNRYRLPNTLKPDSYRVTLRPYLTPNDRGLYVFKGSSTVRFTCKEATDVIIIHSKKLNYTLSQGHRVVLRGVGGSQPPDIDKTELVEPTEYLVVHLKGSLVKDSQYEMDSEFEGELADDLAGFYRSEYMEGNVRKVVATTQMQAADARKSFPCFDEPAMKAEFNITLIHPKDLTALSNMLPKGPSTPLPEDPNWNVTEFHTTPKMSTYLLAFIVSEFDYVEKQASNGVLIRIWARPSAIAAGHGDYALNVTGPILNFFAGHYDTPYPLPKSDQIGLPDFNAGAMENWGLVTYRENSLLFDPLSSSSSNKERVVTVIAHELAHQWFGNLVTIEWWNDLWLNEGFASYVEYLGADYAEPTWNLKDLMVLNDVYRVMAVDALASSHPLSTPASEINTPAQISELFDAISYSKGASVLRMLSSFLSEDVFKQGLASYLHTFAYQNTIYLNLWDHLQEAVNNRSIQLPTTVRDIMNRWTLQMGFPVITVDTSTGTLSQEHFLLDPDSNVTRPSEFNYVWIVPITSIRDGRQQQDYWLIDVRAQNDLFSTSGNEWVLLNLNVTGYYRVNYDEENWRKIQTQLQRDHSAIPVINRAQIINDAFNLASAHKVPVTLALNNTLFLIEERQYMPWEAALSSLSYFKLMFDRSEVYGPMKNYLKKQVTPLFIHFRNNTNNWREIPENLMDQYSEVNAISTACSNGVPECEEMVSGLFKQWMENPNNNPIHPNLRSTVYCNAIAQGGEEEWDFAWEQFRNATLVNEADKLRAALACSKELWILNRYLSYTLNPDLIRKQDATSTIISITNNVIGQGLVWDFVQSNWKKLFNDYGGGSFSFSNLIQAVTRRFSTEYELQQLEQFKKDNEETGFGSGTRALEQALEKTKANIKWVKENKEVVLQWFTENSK
- assay-notes: Inhibition of APN in human ES2 cell surface assessed as inhibition of L-Leu-p-nitroanilide substrate hydrolysis incubated for 5 mins before substrate addition by UV-Vis spectrophotometric analysis
readout-name: IC50

[[record]]
line_notation = "Cc1ccc(NC(=O)N[C@@H](CC(C)C)C(=O)NO)cc1"
result = "940 nM"

[[record]]
line_notation = "COc1ccccc1CNC(=O)N[C@@H](CC(C)C)C(=O)NO"
result = "1100 nM"

[[record]]
line_notation = "COc1cccc(CNC(=O)N[C@@H](CC(C)C)C(=O)NO)c1"
result = "790 nM"

[[record]]
line_notation = "CC(C)C[C@H](NC(=O)Nc1cccc2ccccc12)C(=O)NO"
result = "480 nM"


* * *

- system-under-test: Aminopeptidase N (Mus musculus, UniProt P97449)
- Sequence (P97449 whole entry): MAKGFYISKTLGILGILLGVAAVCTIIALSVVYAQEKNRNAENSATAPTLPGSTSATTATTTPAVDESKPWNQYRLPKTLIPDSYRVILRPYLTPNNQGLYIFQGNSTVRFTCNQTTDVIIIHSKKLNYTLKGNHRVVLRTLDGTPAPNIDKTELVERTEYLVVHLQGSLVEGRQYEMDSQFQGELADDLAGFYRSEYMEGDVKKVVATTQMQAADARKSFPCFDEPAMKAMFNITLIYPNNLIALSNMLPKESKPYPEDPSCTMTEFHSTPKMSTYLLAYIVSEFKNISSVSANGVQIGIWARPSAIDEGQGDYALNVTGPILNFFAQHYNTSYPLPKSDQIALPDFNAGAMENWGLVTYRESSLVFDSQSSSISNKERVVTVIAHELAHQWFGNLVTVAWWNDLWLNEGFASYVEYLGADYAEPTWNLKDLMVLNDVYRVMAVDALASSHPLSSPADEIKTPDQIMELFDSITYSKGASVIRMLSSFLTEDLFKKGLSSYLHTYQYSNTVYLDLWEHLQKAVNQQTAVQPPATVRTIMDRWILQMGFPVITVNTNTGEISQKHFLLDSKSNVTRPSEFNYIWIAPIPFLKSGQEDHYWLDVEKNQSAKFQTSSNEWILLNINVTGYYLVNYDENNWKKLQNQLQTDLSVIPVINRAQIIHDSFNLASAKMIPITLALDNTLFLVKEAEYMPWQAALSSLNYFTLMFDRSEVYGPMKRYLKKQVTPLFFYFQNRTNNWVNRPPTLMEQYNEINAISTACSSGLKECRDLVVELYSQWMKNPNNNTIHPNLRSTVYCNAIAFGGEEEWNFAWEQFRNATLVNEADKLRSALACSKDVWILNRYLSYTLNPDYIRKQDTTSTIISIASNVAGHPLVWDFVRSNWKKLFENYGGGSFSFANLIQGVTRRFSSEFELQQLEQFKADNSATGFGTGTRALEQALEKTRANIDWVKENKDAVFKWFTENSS
- assay-notes: Inhibition of APN in mouse B16-BL6 cell surface assessed as inhibition of L-Leu-p-nitroanilide substrate hydrolysis incubated for 5 mins before substrate addition by UV-Vis spectrophotometric analysis
readout-name: IC50 (µM)

[[record]]
line_notation = "CC(C)C[C@H](NC(=O)[C@@H](O)[C@H](N)Cc1ccccc1)C(=O)O"
readout_name = "IC50"
reading_unit = "µM"
recorded_number = 23.2

[[record]]
line_notation = "CC(C)C[C@H](NC(=O)Nc1cccc2ccccc12)C(=O)NO"
readout_name = "IC50"
reading_unit = "µM"
recorded_number = 2.26

[[record]]
line_notation = "COc1cccc(CNC(=O)N[C@@H](CC(C)C)C(=O)NO)c1"
readout_name = "IC50"
reading_unit = "µM"
recorded_number = 5.61

[[record]]
line_notation = "CC(C)C[C@H](NC(=O)NCc1cccc2ccccc12)C(=O)NO"
readout_name = "IC50"
reading_unit = "µM"
recorded_number = 1.82


* * *

- assay-notes: Cytotoxicity against human ES2 cells assessed as cell growth inhibition rate at 50 ug/ml after 24 hrs by MTT assay
- Assay type: cell-based
- experimental-context: read-out: GI
readout-name: inhibition at 24 h, 50 ug/ml (%)

[[record]]
line_notation = "CC(C)C[C@H](NC(=O)Nc1cccc2ccccc12)C(=O)NO"
recorded_number = 3.63

[[record]]
line_notation = "CC(C)C[C@H](NC(=O)NCc1cccc2ccccc12)C(=O)NO"
recorded_number = 6.67

[[record]]
line_notation = "CC(C)C[C@H](NC(=O)[C@@H](O)[C@H](N)Cc1ccccc1)C(=O)O"
recorded_number = 2.89

[[record]]
line_notation = "Cc1ccc(CNC(=O)N[C@@H](CC(C)C)C(=O)NO)cc1"
recorded_number = 1.83

[[record]]
line_notation = "COc1ccccc1CNC(=O)N[C@@H](CC(C)C)C(=O)NO"
recorded_number = 3.29

[[record]]
line_notation = "Cc1ccc(NC(=O)N[C@@H](CC(C)C)C(=O)NO)cc1"
recorded_number = 1.78


* * *

- system-under-test: 72 kDa type IV collagenase (Homo sapiens)
- Sequence (P08253 whole entry): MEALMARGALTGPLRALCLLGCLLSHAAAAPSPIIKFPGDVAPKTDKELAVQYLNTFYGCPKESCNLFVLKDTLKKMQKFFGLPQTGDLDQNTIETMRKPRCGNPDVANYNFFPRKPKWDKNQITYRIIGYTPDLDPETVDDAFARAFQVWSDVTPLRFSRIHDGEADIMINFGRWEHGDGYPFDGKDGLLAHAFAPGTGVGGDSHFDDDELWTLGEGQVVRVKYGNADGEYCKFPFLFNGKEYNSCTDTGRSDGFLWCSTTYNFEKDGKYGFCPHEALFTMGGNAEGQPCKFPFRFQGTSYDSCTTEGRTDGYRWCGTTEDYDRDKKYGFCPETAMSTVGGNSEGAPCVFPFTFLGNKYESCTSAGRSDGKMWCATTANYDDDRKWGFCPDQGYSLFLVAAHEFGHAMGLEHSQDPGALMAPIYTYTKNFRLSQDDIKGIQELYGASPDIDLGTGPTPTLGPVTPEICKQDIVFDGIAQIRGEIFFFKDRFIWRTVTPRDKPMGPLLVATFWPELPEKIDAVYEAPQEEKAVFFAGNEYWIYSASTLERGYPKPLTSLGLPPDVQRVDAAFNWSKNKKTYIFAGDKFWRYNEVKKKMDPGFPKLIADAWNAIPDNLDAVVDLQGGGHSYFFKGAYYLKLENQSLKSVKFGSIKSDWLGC
- assay-notes: Inhibition of recombinant MMP-2 using succinylated gelatin as substrate incubated for 10 mins before addition of substrate measured after 60 mins by UV-Vis spectrophotometric analysis
pIC50: −log10 of the molar value.
pIC50 listing for selected molecules.
readout-name: pIC50

[[record]]
line_notation = "COc1ccc(CNC(=O)N[C@@H](CC(C)C)C(=O)NO)cc1"
readout_name = "pIC50"
result = "< 3.00"

[[record]]
line_notation = "COc1ccc(NC(=O)N[C@@H](CC(C)C)C(=O)NO)cc1"
readout_name = "pIC50"
result = "< 3.00"

[[record]]
line_notation = "CC(C)C[C@H](NC(=O)[C@@H](O)[C@H](N)Cc1ccccc1)C(=O)O"
readout_name = "pIC50"
result = 3.56

[[record]]
line_notation = "COc1cccc(CNC(=O)N[C@@H](CC(C)C)C(=O)NO)c1"
readout_name = "pIC50"
result = "< 3.00"

[[record]]
line_notation = "Cc1ccc(CNC(=O)N[C@@H](CC(C)C)C(=O)NO)cc1"
readout_name = "pIC50"
result = "< 3.00"

[[record]]
line_notation = "CC(C)C[C@H](NC(=O)NCc1ccc(F)cc1)C(=O)NO"
readout_name = "pIC50"
result = "< 3.00"

[[record]]
line_notation = "CC(C)C[C@H](NC(=O)NCc1cccc(F)c1)C(=O)NO"
readout_name = "pIC50"
result = "< 3.00"

[[record]]
line_notation = "CC(C)C[C@H](NC(=O)Nc1cccc2ccccc12)C(=O)NO"
readout_name = "pIC50"
result = "< 3.00"

[[record]]
line_notation = "Cc1ccc(NC(=O)N[C@@H](CC(C)C)C(=O)NO)cc1"
readout_name = "pIC50"
result = 3.24

